Source: patent US20240270821A1

Reported pEC50 values for the following substances.
- measuredTarget: hGIPR (Homo sapiens)
- Sequence (P48546 22-466): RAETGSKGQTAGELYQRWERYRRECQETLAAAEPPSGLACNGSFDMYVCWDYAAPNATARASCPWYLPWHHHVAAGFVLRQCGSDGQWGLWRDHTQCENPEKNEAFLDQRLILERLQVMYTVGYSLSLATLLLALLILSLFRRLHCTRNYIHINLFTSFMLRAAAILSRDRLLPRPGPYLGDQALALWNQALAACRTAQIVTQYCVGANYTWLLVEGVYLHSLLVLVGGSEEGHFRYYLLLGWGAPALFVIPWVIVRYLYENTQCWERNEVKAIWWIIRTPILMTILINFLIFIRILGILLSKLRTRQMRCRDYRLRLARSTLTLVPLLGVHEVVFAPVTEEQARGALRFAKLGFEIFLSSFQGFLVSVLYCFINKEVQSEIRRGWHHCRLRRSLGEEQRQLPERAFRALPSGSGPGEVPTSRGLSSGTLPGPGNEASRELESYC
- methodNotes: Functional cAMP activation in the presence of 0.1% casein (no HSA);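 further: intracellular cAMP rise after 30 min at 37 °C read by HTRF against a standard curve, scaled between buffer alone (0%) and top control ligand concentration (100%), four-parameter fit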
- Type: cell-based
- conditionDetails: read-out: Relative cAMP EC50, hGIPR
Starred links: 1 amine or outer side, 2 acyl side, 3 side chain; linkers in the order of their positions; H or OH if unused. Non-standard residues stand in square brackets, D forms with d. Groups on a side chain read outwards from the residue. No end group written: not given here. *: point of attachment. C18 diacid = O=C(O)CCCCCCCCCCCCCCCCC(=O)*; αMePhe(2-F) = C[C@](N)(Cc1ccccc1F)C(=O)O; γGlu = O=C(O)[C@H](CCC(=O)[*:2])N[*:1]; αMeY = C[C@](N)(Cc1ccc(O)cc1)C(=O)O; 4Pal = N[C@@H](Cc1ccncc1)C(=O)O; αMeL = CC(C)C[C@](C)(N)C(=O)O; αMeS = C[C@](N)(CO)C(=O)O; Orn = NCCC[C@H](N)C(=O)O; AEEA = NCCOCCOCC(=O)O; Aib = CC(C)(N)C(=O)O
In plain terms, pEC50 is the concentration in mol/L turned into minus its base-10 logarithm.

See these solved cases before continuing.
substance	pEC50
H-Y[Aib]QGT[αMePhe(2-F)]TSD[4Pal][αMeS]I[αMeL]LD[Orn]K([γGlu-γGlu-C18 diacid])AQ[Aib][Orn]FI[dE][αMeY]LQEGGPSSGEPPPSGTEEE-NH2 [Example 573]	10.47
H-Y[Aib]QGT[αMePhe(2-F)]TSD[4Pal][αMeS]I[αMeL]LD[Orn]K([γGlu-γGlu-C18 diacid])AQ[Aib][Orn]FI[dE]YLLEGGPSSGEPPPSGTE-NH2 [Example 532]	10.80

Now turn to the next substance.
Query block: Determine from records and report pEC50 for Y[Aib]QGT[αMePhe(2-F)]TSD[4Pal][αMeS]I[αMeL]LD[Orn]K([AEEA-γGlu-C18 diacid])AQ[Aib][Orn]FI[dE]YLIEGGPSSGEPPPSEG-NH2 [Example 463]
Result block: 10.25
